Hey, just so you know, these numbers are from paper PMC3288656.

target: UniProtKB P47746; test: [35S]GTPγS binding assay; type: biochemical; settings: conclusion from [35S]GTPγS binding data
measurement label: intrinsic activity at CB1Rs

Observe how each entry below is paired with its result.
>>> df
                                   compound                     value
0  CCCCn1cc(C(=O)c2cccc3ccccc23)c2c(O)cccc21  partial agonist activity
1  CCCCn1cc(C(=O)c2cccc3ccccc23)c2ccc(O)cc21  partial agonist activity
2  CCCCCCC(C)(C)c1ccc([C@@H]2C[C@H](O)CC[C@H]2CCCO)c(O)c1 [CP-55,940, reference compound]        full CB1R agonists
3   O=C(c1cccc2ccccc12)c1cn(CCCCO)c2ccccc12  partial agonist activity

Now look at this one.
Query :: Which measured intrinsic activity at CB1Rs value corresponds to CCCCn1cc(C(=O)c2cccc3ccccc23)c2ccccc21 [JWH-073, reference compound] ?
Result :: full CB1R agonists

###

molecular target: CB1Rs (Mus musculus, UniProt P47746)
Sequence (P47746 whole entry): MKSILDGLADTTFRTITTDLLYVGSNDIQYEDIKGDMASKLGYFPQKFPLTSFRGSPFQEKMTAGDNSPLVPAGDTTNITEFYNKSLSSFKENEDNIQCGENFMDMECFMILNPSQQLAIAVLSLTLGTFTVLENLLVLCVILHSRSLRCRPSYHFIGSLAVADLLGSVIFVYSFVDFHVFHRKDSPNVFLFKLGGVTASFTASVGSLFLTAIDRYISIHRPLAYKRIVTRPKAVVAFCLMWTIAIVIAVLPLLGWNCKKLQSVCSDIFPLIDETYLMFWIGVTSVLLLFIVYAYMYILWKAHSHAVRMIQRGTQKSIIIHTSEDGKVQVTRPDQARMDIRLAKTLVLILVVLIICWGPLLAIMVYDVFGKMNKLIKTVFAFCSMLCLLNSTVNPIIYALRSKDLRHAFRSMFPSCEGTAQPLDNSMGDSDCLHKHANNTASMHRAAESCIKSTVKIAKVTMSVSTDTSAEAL
measurement label: Ki (µM)
Report the value in µM with no unit label.

Query :: Recorded Ki for `CCCCn1cc(C(=O)c2cccc3ccccc23)c2ccc(O)cc21` with CB1Rs (Mus musculus, UniProt P47746), please?
Result :: 1.28

###

target: CB1Rs (Mus musculus, UniProt P47746); test: [35S]GTPγS binding assay; assay type: biochemical; conditions: drug 1 μM
measurement label: [35S]GTPγS Binding (pmol/mg)
Report the value in pmol/mg with no unit label.

>>> df
                                   compound   measurement_label  unit_label  value
0  CCCCn1cc(C(=O)c2cccc3ccccc23)c2ccccc21 [JWH-073, reference compound]  [35S]GTPγS Binding     pmol/mg   0.27

Query :: Recorded [35S]GTPγS Binding for `O=C(c1cccc2ccccc12)c1cn(CCCCO)c2ccccc12` with CB1Rs (Mus musculus, UniProt P47746), please?
Result :: 0.12

Query :: Recorded [35S]GTPγS Binding for `CCCCn1cc(C(=O)c2cccc3ccccc23)c2c(O)cccc21` with CB1Rs (Mus musculus, UniProt P47746), please?
Result :: 0.17

Query :: Recorded [35S]GTPγS Binding for `CCCCn1cc(C(=O)c2cccc3ccccc23)c2ccc(O)cc21` with CB1Rs (Mus musculus, UniProt P47746), please?
Result :: 0.04

###

target: CB1Rs (Mus musculus, UniProt P47746); test: [35S]GTPγS binding assay; settings: read-out: EC50 for G-protein activation; JWH-018 alone
measurement label: pEC50
# pEC50 is unitless: minus log10 of the molar concentration; print number only

Query :: Which measured pEC50 value corresponds to CCCCCn1cc(C(=O)c2cccc3ccccc23)c2ccccc21 [JWH-018, reference compound] ?
Result :: 8.10

###

# maps each entry to its [35S]GTPγS Binding + O-2050 (1 μM)
molecular target: CB1Rs (Mus musculus, UniProt P47746); experiment: [35S]GTPγS binding assay; format: biochemical; conditions: drug 1 μM co-incubated with CB1R antagonist O-2050 1 μM
Report the value in pmol/mg with no unit label.

                                   compound                   measurement_label  value
0  CCCCn1cc(C(=O)c2cccc3ccccc23)c2c(O)cccc21 [M1]  [35S]GTPγS Binding + O-2050 (1 μM)   0.07
1  CCCCn1cc(C(=O)c2cccc3ccccc23)c2ccc(O)cc21 [M3]  [35S]GTPγS Binding + O-2050 (1 μM)   0.02
2  CCCCn1cc(C(=O)c2cccc3ccccc23)c2ccccc21 [JWH-073, reference compound]  [35S]GTPγS Binding + O-2050 (1 μM)   0.07

Query :: Which measured [35S]GTPγS Binding + O-2050 (1 μM) value corresponds to O=C(c1cccc2ccccc12)c1cn(CCCCO)c2ccccc12 [M5] ?
Result :: 0.05
